From: patent US20250313535A1

Target: α4β1 integrin (Homo sapiens (Human), UniProt P05556+P13612)
Sequence (P13612 34-1032): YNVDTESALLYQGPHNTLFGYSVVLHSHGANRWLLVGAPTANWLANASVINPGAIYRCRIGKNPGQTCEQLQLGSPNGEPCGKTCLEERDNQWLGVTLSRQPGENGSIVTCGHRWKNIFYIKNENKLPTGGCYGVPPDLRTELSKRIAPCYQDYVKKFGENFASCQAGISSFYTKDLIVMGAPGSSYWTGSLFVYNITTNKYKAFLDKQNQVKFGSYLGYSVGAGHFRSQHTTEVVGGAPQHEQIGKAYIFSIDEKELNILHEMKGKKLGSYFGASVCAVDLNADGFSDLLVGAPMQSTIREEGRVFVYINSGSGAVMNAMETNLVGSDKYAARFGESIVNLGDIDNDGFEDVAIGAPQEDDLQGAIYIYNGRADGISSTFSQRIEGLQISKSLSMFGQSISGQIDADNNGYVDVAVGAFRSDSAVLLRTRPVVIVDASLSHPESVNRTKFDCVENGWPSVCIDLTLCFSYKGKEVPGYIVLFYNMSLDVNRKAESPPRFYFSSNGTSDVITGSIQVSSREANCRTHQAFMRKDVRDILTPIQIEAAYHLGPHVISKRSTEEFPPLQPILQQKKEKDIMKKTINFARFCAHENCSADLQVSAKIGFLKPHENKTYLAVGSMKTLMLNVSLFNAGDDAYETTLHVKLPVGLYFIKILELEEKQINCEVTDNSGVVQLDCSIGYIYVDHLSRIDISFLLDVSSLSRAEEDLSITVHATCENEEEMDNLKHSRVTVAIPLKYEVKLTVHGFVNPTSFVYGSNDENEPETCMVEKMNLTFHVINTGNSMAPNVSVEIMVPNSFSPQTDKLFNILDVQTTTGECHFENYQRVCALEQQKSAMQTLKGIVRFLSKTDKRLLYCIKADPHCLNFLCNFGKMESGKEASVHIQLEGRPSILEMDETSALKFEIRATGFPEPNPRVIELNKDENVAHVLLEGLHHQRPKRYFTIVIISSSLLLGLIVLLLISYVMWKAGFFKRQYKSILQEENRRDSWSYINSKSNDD
Sequence (P05556 21-798): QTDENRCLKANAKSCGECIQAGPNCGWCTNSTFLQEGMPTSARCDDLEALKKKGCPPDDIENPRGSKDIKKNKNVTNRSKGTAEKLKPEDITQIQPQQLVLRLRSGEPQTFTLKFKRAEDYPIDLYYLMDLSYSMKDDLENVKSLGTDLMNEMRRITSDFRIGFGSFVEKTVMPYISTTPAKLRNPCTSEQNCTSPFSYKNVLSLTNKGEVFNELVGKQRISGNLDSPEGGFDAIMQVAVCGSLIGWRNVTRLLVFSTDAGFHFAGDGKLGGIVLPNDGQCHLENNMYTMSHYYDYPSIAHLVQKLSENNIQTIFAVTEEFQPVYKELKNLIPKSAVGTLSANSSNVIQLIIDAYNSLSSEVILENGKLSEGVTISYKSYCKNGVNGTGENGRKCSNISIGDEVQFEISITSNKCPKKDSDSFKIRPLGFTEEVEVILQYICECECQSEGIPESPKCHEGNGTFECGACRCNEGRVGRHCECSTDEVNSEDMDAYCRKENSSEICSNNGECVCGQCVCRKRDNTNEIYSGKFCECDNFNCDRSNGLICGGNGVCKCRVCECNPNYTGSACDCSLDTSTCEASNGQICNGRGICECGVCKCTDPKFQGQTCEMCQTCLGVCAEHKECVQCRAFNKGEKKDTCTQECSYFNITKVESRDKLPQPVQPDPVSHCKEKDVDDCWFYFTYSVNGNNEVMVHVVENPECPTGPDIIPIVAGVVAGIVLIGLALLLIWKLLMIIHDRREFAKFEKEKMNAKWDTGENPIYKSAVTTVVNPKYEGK
Test: Integrin Adhesion Assay: Protocol 2 (VCAM-coated plate, Jurkat cells, CellTiter GLO readout)
Format: cell-based
Settings: determined by at least one of the assays described (protocol not specified)
Experimental endpoint: IC50

Q) Provide only the value of recorded IC50 for COCCN1CCC(C)(C(=O)N[C@@H](Cc2cccc3c(-n4c(=O)ccn(C)c4=O)cccc23)C(=O)O)CC1
A) > 1000 nM

###

Molecular target: α4β7 integrin (Homo sapiens (Human), UniProt P13612+P26010)
Sequence (P13612 34-1032): as the sequence (P13612 34-1032) above
Sequence (P26010 20-798): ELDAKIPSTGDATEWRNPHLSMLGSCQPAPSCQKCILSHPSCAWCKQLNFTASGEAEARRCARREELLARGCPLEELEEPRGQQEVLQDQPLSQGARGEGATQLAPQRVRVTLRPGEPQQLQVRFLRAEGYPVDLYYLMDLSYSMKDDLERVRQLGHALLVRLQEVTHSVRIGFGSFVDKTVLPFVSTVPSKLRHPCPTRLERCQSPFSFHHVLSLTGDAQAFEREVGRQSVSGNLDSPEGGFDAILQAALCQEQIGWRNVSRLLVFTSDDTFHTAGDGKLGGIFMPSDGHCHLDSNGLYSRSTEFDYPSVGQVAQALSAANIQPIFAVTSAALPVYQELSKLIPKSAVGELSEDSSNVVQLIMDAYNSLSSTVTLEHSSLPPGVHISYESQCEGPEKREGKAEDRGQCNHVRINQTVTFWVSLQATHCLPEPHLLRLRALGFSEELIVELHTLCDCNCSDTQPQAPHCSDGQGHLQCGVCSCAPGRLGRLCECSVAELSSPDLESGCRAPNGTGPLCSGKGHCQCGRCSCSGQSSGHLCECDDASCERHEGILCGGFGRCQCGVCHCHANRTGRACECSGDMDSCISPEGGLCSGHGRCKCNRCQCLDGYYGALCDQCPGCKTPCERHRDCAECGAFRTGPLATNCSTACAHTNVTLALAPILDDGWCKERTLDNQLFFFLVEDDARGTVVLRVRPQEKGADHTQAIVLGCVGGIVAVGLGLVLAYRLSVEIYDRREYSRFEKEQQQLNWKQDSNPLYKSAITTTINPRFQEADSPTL
Assay: Integrin Adhesion Assay: Protocol 4 (MAdCAM-coated plate, RPMI-8866 cells with stable LOF mutation of the ITGB1 gene)
Type: cell-based
Details: Protocol 4; RPMI-8866 cells with LOF mutation of ITGB1, MAdCAM; read-out: Mean IC50 α4β7 KO
Experimental endpoint: IC50

Reference set (2 entries):
{"Compound": "COc1cccc(CN2CCCC(F)C2)c1-c1cccc2c(C[C@H](NC(=O)C3(C(F)(F)F)CCN(CC(F)(F)F)CC3)C(=O)O)cccc12 (stereo partly drawn)", "Subject of test": "α4β7 integrin (Homo sapiens (Human), UniProt P13612+P26010)", "Result": "0.01 to 0.1 µM"}
{"Compound": "Cc1cc(C(F)(F)F)cc(F)c1C(=O)N[C@@H](Cc1cccc2c(-c3c(C(F)(F)F)c4cc(CN(C)C)ccc4n(C)c3=O)cccc12)C(=O)O", "Subject of test": "α4β7 integrin (Homo sapiens (Human), UniProt P13612+P26010)", "Result": "0.01 to 0.1 µM"}

Continue with the compound presented below.
Q) Provide only the value of recorded IC50 for O=C(O)[C@H](Cc1cccc2c(-c3ncc(CN4CCCCC4)c4ccccc34)cccc12)NC(=O)C1(C(F)(F)F)CCN(CC(F)F)CC1
A) < 0.01 µM
